Origin of values: ChEMBL document CHEMBL4342418

test system: MCF7; test: Antiproliferative activity against human MCF7 cells assessed as reduction in cell viability after 48 hrs by SRB assay; assay type: functional, cell-based; conditions: MCF7, 48 h
REPORTED ENDPOINT: IC50

Solved cases (2 shown):
INSERT INTO results (molecule, measured_value) VALUES
  ('CC[C@@]1(O)C(=O)OCc2c1cc1n(c2=O)Cc2cc3ccccc3nc2-1', '30 to 800 nM'),
  ('O=C(/C=C/c1cn(-c2ccccc2)nc1-c1ccccc1)OCc1cn(-c2ccc([N+](=O)[O-])cc2)nn1', '1760 to 9460 nM');

Given the compound Cc1ccc(-c2nn(-c3ccccc3)cc2/C=C/C(=O)OCc2cn(-c3ccc([N+](=O)[O-])cc3)nn2)cc1 , write its reported IC50.
1760 to 9460 nM
